TARGET OR TEST SYSTEM: BRAF^V600E protein (Homo sapiens, UniProt P15056, V600E)
Sequence (P15056 whole entry V600E): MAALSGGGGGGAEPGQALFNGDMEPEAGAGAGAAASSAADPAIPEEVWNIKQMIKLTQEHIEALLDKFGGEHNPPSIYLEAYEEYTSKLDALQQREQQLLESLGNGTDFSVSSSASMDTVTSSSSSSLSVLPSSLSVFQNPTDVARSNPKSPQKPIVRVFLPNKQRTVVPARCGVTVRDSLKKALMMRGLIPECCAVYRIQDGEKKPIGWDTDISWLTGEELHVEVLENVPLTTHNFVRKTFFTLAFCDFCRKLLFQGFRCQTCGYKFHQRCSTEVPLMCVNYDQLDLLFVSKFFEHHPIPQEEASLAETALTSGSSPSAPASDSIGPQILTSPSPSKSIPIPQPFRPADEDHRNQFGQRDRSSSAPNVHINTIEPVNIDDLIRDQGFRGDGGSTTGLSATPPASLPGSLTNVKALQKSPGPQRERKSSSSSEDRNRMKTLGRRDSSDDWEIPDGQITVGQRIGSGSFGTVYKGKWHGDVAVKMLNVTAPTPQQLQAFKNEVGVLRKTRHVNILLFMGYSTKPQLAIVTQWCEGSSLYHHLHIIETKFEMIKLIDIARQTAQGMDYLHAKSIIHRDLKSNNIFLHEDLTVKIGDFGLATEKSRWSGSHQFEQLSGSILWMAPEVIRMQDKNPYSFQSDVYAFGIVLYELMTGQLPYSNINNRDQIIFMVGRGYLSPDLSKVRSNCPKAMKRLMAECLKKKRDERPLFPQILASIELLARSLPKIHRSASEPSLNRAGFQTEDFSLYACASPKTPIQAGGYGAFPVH
TEST DESCRIPTION: HiBiT cellular BRAF V600E degradation assay
Type: cell-based
CONDITION: A375.10 cells (HiBiT tag knocked in at N-terminal of BRAF V600E), 24 h incubation; concentration at which 50% of total cellular BRAF V600E is degraded
Where a name gives a salt, the structure may show the parent alone.
ATTRIBUTE MEASURED: DC50 (nM)
Numbers only; they are read as nM.

Can you look up the measured DC50 of CCN(C)S(=O)(=O)Nc1ccc(F)c(C(=O)c2c[nH]c3ncc(-c4ccc(CN5CCN(C(=O)CN6Cc7ccc(NC8CCC(=O)NC8=O)cc7C6)CC5)nc4)cc23)c1F (centres unmarked) [Example A38] for me?
47

Can you look up the measured DC50 of CCN(C)S(=O)(=O)Nc1ccc(F)c(C(=O)c2c[nH]c3ncc(-c4cnc(N5CCC(O)(CCN6CCC(c7ccc(NC8CCC(=O)NC8=O)cc7)CC6)CC5)nc4)cc23)c1F (centres unmarked) [Example 149] for me?
9.25

Can you look up the measured DC50 of CCN(C)S(=O)(=O)Nc1ccc(F)c(C(=O)c2c[nH]c3ncc(-c4cnc(N5CCN(C(=O)NC6CCN(c7ccc(NC8CCC(=O)NC8=O)cc7F)CC6)CC5)nc4)cc23)c1F (centres unmarked) [Example 138] for me?
10.5

Can you look up the measured DC50 of CCN(C)S(=O)(=O)Nc1ccc(F)c(C(=O)c2c[nH]c3ncc(-c4cnc(N5CCN(C(=O)CC6(O)CCN(c7ccc(N8CCC(=O)NC8=O)cc7F)CC6)CC5)c(F)c4)cc23)c1F [Example 194] for me?
4.5

Can you look up the measured DC50 of CCN(C)S(=O)(=O)Nc1ccc(F)c(C(=O)c2c[nH]c3ncc(-c4ccc(N5CCN(C(=O)CN6CCC(c7ccc(NC89CC(C8)C(=O)NC9=O)cc7)CC6)CC5)nc4)cc23)c1F [Example A47] for me?
3.86

Can you look up the measured DC50 of CCN(C)S(=O)(=O)Nc1ccc(F)c(C(=O)c2c[nH]c3ncc(-c4ccc(N5CCN(C(=O)CC6(O)CCN(c7ccc(NC8CCC(=O)NC8=O)cc7F)CC6)CC5)cc4)cc23)c1F (centres unmarked) [Example 89] for me?
1.4

Can you look up the measured DC50 of CCN(C)S(=O)(=O)Nc1ccc(F)c(C(=O)c2c[nH]c3ncc(-c4cnc(N5CCN(C(=O)CN6CCC(c7ccc(NC8CCC(=O)NC8=O)cc7F)CC6)CC5)nc4)cc23)c1F (centres unmarked) [Example A54] for me?
3.94

Can you look up the measured DC50 of CCN(C)S(=O)(=O)Nc1ccc(F)c(C(=O)c2c[nH]c3ncc(-c4ccc(C5CCN(C(=O)CN6CCC(c7ccc(NC8CCC(=O)NC8=O)cc7)CC6)CC5)nc4)cc23)c1F (centres unmarked) [Example A49] for me?
17

Can you look up the measured DC50 of CCN(C)S(=O)(=O)Nc1ccc(F)c(C(=O)c2c[nH]c3ncc(-c4ccc(N5CCN(C(=O)CC6(O)CCN(c7ncc(NC8CCC(=O)NC8=O)cc7F)CC6)CC5)cc4)cc23)c1F (centres unmarked) [Example 90] for me?
2.13

Can you look up the measured DC50 of CCN(C)S(=O)(=O)Nc1ccc(F)c(C(=O)c2c[nH]c3ncc(-c4cnc(N5CCN(C(=O)CC6(O)CCN(c7cc(F)c(N8CCC(=O)NC8=O)cc7Cl)CC6)CC5)nc4)cc23)c1F [Example 216] for me?
1.33

Can you look up the measured DC50 of CCN(C)S(=O)(=O)Nc1ccc(F)c(C(=O)c2c[nH]c3ncc(-c4ccc(N5CCN(CCC6CCN(c7ccc(NC8CCC(=O)NC8=O)cc7)CC6)C(=O)C5)nc4)cc23)c1F (centres unmarked) [Example 148] for me?
19.8

Can you look up the measured DC50 of CCN(C)S(=O)(=O)Nc1ccc(F)c(C(=O)c2c[nH]c3ncc(-c4ccc(CN5CCN(C(=O)CN6CCN(c7ccc(NC8CCC(=O)NC8=O)cc7)CC6)CC5)nc4)cc23)c1F (centres unmarked) [Example A12] for me?
74

Can you look up the measured DC50 of CCN(C)S(=O)(=O)Nc1ccc(F)c(C(=O)c2c[nH]c3ncc(-c4cnc(N5CCN(C(=O)CN6CCC(c7ccc(NC8CCC(=O)NC8=O)cc7)CC6)CC5)nc4)c(C)c23)c1F (centres unmarked) [Example 65] for me?
9.97

Can you look up the measured DC50 of CCN(C)S(=O)(=O)Nc1ccc(F)c(C(=O)c2c[nH]c3ncc(-c4cnc(N5CCc6c(CN7CCC(c8ccc(NC9CCC(=O)NC9=O)cc8)CC7)cccc6C5)nc4)cc23)c1F (centres unmarked) [Example 150] for me?
32.8

Can you look up the measured DC50 of CCN(C)S(=O)(=O)Nc1ccc(F)c(C(=O)c2c[nH]c3ncc(-c4cnc(N5CCN(C(=O)CC6(OP(=O)(O)O)CCN(c7ccc(C8CCC(=O)NC8=O)cc7F)CC6)CC5)nc4)cc23)c1F (centres unmarked) [Example 158e] for me?
10.8

Can you look up the measured DC50 of CCN(C)S(=O)(=O)Nc1cccc(C(=O)c2c[nH]c3ncc(-c4cnc(N5CCN(C(=O)CC6(O)CCN(c7ccc(C8CCC(=O)NC8=O)cc7F)CC6)CC5)nc4)cc23)c1F (centres unmarked) [Example 162] for me?
2.09

Can you look up the measured DC50 of O=C1CCC(Nc2ccc(C3CCN(CC(=O)N4CC5(C4)CN(c4ncc(-c6cnc7[nH]cc(C(=O)c8c(F)ccc(NS(=O)(=O)N9CCCC9)c8F)c7c6)cn4)C5)CC3)cc2)C(=O)N1 (centres unmarked) [Example A120] for me?
8

Can you look up the measured DC50 of CCN(C)S(=O)(=O)Nc1ccc(F)c(C(=O)c2c[nH]c3ncc(-c4ccc(N5CCC(NCC(=O)N6CCC(c7ccc(NC8CCC(=O)NC8=O)cn7)CC6)CC5)cc4)cc23)c1F (centres unmarked) [Example A96, hydrochloride] for me?
18

Can you look up the measured DC50 of CCN(C)S(=O)(=O)Nc1ccc(F)c(C(=O)c2c[nH]c3ncc(C#CC4CCN(C(=O)CN5CCC(c6ccc(NC7CCC(=O)NC7=O)cc6F)CC5)CC4)cc23)c1F (centres unmarked) [Example 124] for me?
22.1

Can you look up the measured DC50 of CCN(C)S(=O)(=O)Nc1ccc(F)c(C(=O)c2c[nH]c3ncc(-c4cnc(N5CCN(C(=O)CN6CCC(c7ccc(NC8CCC(=O)NC8=O)cc7C(F)F)CC6)CC5)nc4)cc23)c1F (centres unmarked) [Example 39] for me?
10.2
